Biological target: 5-LO (Bos taurus)
Construct: Polymorphonuclear leukocytes (PMNL) were prepared from sodium EDTA-anticoagulated bovine blood; endogenous in cells; host or cells: bovine polymorphonuclear leukocytes isolated from EDTA-anticoagulated blood (intact cells, A23187-stimulated)
Sequence (F1MQ78 1-674): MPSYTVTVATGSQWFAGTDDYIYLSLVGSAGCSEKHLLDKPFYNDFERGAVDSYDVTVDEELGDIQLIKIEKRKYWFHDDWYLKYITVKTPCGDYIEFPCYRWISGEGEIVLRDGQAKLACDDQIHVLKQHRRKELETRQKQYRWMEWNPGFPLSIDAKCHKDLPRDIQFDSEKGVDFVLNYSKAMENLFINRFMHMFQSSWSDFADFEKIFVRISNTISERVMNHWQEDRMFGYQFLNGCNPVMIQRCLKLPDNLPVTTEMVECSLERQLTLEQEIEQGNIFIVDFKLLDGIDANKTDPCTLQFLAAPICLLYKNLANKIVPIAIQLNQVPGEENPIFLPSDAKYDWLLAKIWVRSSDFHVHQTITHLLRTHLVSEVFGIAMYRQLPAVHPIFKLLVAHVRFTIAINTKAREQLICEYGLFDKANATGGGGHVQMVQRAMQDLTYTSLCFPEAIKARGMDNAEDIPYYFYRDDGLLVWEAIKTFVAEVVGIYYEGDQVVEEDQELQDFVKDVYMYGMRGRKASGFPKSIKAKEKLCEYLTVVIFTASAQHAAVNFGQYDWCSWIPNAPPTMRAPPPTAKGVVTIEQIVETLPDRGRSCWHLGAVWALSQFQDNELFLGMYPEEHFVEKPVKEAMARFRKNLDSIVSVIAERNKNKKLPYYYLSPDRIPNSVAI
Assay: Bovine PMNL 5-Lipoxygenase Assay (inhibition of 5-HETE and LTB4 biosynthesis)
Format: cell-based
pIC50: −log10 of the molar value.

Compound	pIC50
COC(=O)CSC1c2cccc(O)c2C(=O)c2c(O)cccc21 [3-A, reference compound]	4.89

###

Each record here notes measured pIC50.
Target: 5-LO (Bos taurus)
Construct: Polymorphonuclear leukocytes (PMNL) were prepared from sodium EDTA-anticoagulated bovine blood; endogenous in cells; host or cells: bovine polymorphonuclear leukocytes isolated from EDTA-anticoagulated blood (intact cells, A23187-stimulated)
Sequence (F1MQ78 1-674): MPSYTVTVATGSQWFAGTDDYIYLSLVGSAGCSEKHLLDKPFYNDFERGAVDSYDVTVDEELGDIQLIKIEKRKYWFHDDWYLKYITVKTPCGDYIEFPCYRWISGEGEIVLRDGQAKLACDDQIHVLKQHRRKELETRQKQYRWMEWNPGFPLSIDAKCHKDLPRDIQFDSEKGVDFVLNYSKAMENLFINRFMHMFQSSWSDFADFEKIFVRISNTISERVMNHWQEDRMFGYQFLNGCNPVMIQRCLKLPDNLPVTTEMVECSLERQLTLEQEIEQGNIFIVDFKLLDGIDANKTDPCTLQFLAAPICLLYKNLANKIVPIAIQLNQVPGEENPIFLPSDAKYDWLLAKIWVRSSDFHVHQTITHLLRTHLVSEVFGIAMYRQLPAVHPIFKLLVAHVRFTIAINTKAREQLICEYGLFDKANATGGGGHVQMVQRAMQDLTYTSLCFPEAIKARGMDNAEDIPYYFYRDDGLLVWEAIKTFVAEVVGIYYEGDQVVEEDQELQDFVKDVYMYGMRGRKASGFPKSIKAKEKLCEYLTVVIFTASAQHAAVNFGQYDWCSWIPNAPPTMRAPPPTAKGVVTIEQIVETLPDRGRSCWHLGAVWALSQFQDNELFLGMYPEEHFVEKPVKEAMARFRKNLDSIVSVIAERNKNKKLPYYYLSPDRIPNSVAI
Assay: Bovine PMNL 5-Lipoxygenase Assay (inhibition of 5-HETE and LTB4 biosynthesis)
Type: cell-based
Details: read-out: 5-LO IC50
pIC50: −log10 of the molar value.
Readout label: pIC50

Smiles	Readout label	Assay result
COc1ccccc1SC1c2cccc(O)c2C(=O)c2c(O)cccc21	pIC50	5.20
O=C1c2c(O)cccc2C(Sc2ccccc2O)c2cccc(O)c21	pIC50	5.30
Nc1ccccc1SC1c2cccc(O)c2C(=O)c2c(O)cccc21	pIC50	5.62
COc1ccc(SC2c3cccc(O)c3C(=O)c3c(O)cccc32)cc1	pIC50	5.49
O=C1c2c(O)cccc2C(Sc2ccc(O)cc2)c2cccc(O)c21	pIC50	5.62

###

Reported IC50 is given for each of the following compounds.
Target: 5-LO (Bos taurus)
Construct: Polymorphonuclear leukocytes (PMNL) were prepared from sodium EDTA-anticoagulated bovine blood; endogenous in cells; host or cells: bovine polymorphonuclear leukocytes isolated from EDTA-anticoagulated blood (intact cells, A23187-stimulated)
Test: Bovine PMNL 5-Lipoxygenase Assay (inhibition of 5-HETE and LTB4 biosynthesis)
Type: cell-based
Details: read-out: 5-LO IC50
Experimental: Polymorphonuclear leukocytes (PMNL) were prepared from sodium EDTA-anticoagulated bovine blood, essentially as described by Walstra, P. et al., "Leukotriene Formation by Bovine Polymorphonuclear Leukocytes", Biochim. Biophys. Acta, 795,499-503 (1984). […] Data were recorded on a MacLab data acquisition system (WissTech, Germany) and analysis was performed with the application Peaks on an Apple Macintosh Quadra 700 computer. […]

Compound	IC50 [µM]
O=C1c2c(O)cccc2Cc2cccc(O)c21 [anthralin, 1,8-dihydroxy-9(10H)-anthracenone]	37
Nc1ccc(SC2c3cccc(O)c3C(=O)c3c(O)cccc32)cc1 [Compound 3n]	7.5
Nc1cccc(SC2c3cccc(O)c3C(=O)c3c(O)cccc32)c1 [Compound 3m]	2.4
COC(=O)CCSC1c2cccc(O)c2C(=O)c2c(O)cccc21 [Compound 3c]	15

###

Molecular target: 5-LO (Bos taurus, UniProt F1MQ78)
Construct: Polymorphonuclear leukocytes (PMNL) were prepared from sodium EDTA-anticoagulated bovine blood; endogenous in cells; host or cells: bovine polymorphonuclear leukocytes isolated from EDTA-anticoagulated blood (intact cells, A23187-stimulated)
Sequence (F1MQ78 1-674): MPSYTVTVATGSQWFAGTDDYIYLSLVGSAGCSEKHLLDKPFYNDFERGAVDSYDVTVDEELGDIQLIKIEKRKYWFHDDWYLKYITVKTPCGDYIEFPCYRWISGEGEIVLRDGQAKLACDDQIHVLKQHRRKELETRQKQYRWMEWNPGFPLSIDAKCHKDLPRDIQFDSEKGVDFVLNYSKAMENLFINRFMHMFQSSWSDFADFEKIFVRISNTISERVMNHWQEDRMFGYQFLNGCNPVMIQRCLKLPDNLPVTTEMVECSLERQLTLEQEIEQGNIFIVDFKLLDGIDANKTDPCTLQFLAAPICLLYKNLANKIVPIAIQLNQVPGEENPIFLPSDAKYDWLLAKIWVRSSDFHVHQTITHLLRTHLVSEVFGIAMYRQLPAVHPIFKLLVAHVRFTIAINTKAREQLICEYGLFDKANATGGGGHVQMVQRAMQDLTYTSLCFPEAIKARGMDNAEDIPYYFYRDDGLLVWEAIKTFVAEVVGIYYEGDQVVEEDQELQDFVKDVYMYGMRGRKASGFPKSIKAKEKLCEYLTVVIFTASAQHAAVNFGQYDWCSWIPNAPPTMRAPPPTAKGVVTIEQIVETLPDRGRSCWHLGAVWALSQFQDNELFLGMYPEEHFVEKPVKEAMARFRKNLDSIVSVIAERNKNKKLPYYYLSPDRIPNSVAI
Test: Bovine PMNL 5-Lipoxygenase Assay (inhibition of 5-HETE and LTB4 biosynthesis)
Assay type: cell-based
Conditions: PMNL; read-out: 5-LO percent inhibition

Molecule	Unit of measurement	inhibition at 30 µM
CCOC(=O)CSC1c2cccc(O)c2C(=O)c2c(O)cccc21 [3-B, reference compound]	%	42
CC(SC1c2cccc(O)c2C(=O)c2c(O)cccc21)C(=O)O (centres unmarked)	%	28
CCCCOC(=O)CSC1c2cccc(O)c2C(=O)c2c(O)cccc21	%	8
O=C1c2c(O)cccc2C(SCc2ccccc2)c2cccc(O)c21 [4A, reference compound]	%	46
CCCCOC(=O)CCSC1c2cccc(O)c2C(=O)c2c(O)cccc21	%	62
COc1cccc(SC2c3cccc(O)c3C(=O)c3c(O)cccc32)c1	%	100
O=C1c2c(O)cccc2C(SCCCS)c2cccc(O)c21	%	14
CCOC(=O)CCSC1c2cccc(O)c2C(=O)c2c(O)cccc21	%	30
